Reported IC50 against Lon protease homolog, mitochondrial (Homo sapiens, UniProt P36776), gathered from multiple publications, appears below.

Dear colleague, please send me the reported IC50 for "CCCC[C@H](NC(=O)[C@@H](CC(=O)N1CCOCC1)NC(=O)c1cnccn1)B(O)O" when you can.
< 50 nM

Fill in IC50 for record "CN(C)C(=O)N[C@H](CC(=O)N1CCOCC1)C(=O)N[C@@H](CCCc1ccccc1)B(O)O"
50 to 500 nM

Annotate the compound "O=C(N[C@@H](CCCc1ccccc1)B(O)O)[C@@H](CC(=O)N1CCOCC1)NC(=O)N1CCCC1" with its measured IC50.
50 to 500 nM

Return IC50 (reported value) for this compound: "O=C(N[C@@H](CCCc1ccccc1)B(O)O)[C@@H](CC(=O)N1CCOCC1)NCc1ccccc1"
50 to 500 nM

Name the recorded IC50 of the compound listed here: "O=C(N[C@@H](CCCc1ccccc1)B(O)O)[C@@H](CC(=O)N1CCOCC1)NC(=O)[C@H]1CCCCO1"
50 to 500 nM

Quote IC50 reported for "COC[C@@H](NC(=O)c1cnccn1)C(=O)N[C@@H](COCc1ccccc1)B(O)O" please.
50 to 500 nM

Please give the documented IC50 of "CC(=O)N[C@H](CC(=O)N1CCOCC1)C(=O)N[C@@H](CCCc1ccccc1)B(O)O"
50 to 500 nM

Please indicate IC50 recorded for O=C(N[C@H](CC(=O)N1CCOCC1)C(=O)N[C@@H](CCCc1ccccc1)B(O)O)C1CCCCO1 (stereo partly drawn)
< 50 nM

Give IC50 for O=C(N[C@H](CC(=O)N1CCOCC1)C(=O)NC(CCCc1ccccc1)B(O)O)C1CCOCC1 (stereo in doubt)
< 50 nM

Identify IC50 associated with the compound "COC[C@@H](NC(=O)c1cnccn1)C(=O)N[C@@H](CC(C)C)B(O)O"
50 to 500 nM

Give a short answer stating reported IC50 for "CCC[C@H](C(=O)N(C)[C@@H](CCCc1ccccc1)B(O)O)N(C)C(=O)c1cnccn1" .
50 to 500 nM

Annotate the compound "CN(C)C(=O)C[C@@H](NC(=O)c1cnccn1)C(=O)N[C@@H](CCCc1ccccc1)B(O)O" with its measured IC50.
< 50 nM

Indicate its recorded IC50; the compound in question is "O=C(N[C@H](CC(=O)N1CCOCC1)C(=O)N[C@@H](CCCc1ccccc1)B(O)O)C1CCCCC1"
< 50 nM

Return IC50 for the following compound: "O=C(N[C@@H](Cc1cnco1)C(=O)N[C@@H](CCCc1ccccc1)B(O)O)c1cnccn1"
< 50 nM

Tell me measured IC50 for "CO[C@@H](C)[C@@H](NC(=O)c1cnccn1)C(=O)N[C@@H](CCOc1ccccc1)B(O)O" please.
50 to 500 nM

Please look at this compound and report its IC50: "CCC[C@H](C(=O)N[C@@H](CCCc1ccccc1)B(O)O)N(C)C(=O)c1cnccn1"
50 to 500 nM

Report IC50, nothing else, for this compound: "Cn1ccnc1C[C@H](NC(=O)c1cnccn1)C(=O)N[C@@H](CCCc1ccccc1)B(O)O"
50 to 500 nM

Report IC50 for "COC[C@@H](NC(=O)[C@H]1CCC(=O)N1)C(=O)N[C@@H](CCCc1ccccc1)B(O)O"
50 to 500 nM

Kindly indicate its recorded IC50. Item: "O=C(N[C@@H](CCCc1ccccc1)B(O)O)[C@@H](CC(=O)N1CCOCC1)NC(=O)N1CCOCC1"
< 50 nM

Supply IC50 value. Item: "O=C(N[C@@H](CCCc1ccccc1)B(O)O)[C@@H](CC(=O)N1CCOCC1)NCCc1ccccc1"
50 to 500 nM

Give the reported value of IC50 for this record: "CCC[C@@H](NC(=O)c1cnccn1)C(=O)N[C@@H](COCc1ccccc1)B(O)O"
< 50 nM

Respond only with IC50 recorded for "O=C(N[C@@H](CCCc1ccccc1)B(O)O)[C@@H](CC(=O)N1CCOCC1)NC(=O)N1CC[C@H](O)C1"
50 to 500 nM

Report IC50 for "O=C(N[C@@H](CCCc1ccccc1)B(O)O)[C@@H](CC(=O)N1CCOCC1)NS(=O)(=O)c1cnccn1"
50 to 500 nM

Entry "O=C(N[C@H](Cc1c[nH]c2ccccc12)C(=O)N[C@@H](CCCc1ccccc1)B(O)O)c1cnccn1" needs its IC50 filled in; supply it.
50 to 500 nM

----------
System: Lon protease homolog, mitochondrial (Homo sapiens) | Read-out: IC50 | Origin: multiple publications

Provide the reported IC50 (system: Lon protease homolog, mitochondrial (Homo sapiens)) for "O=C(N[C@H](CC(=O)N1CCOCC1)C(=O)N[C@@H](CCCc1ccccc1)B(O)O)C1CCOCC1"
< 50 nM

GET IC50 | system: Lon protease homolog, mitochondrial (Homo sapiens) | item: O=C(N[C@H](CC(=O)N1CCOCC1)C(=O)NC(CCCc1ccccc1)B(O)O)C1CCCCC1 (stereo in doubt)
< 50 nM

Print Lon protease homolog, mitochondrial (Homo sapiens) IC50 for "COC[C@H](C(=O)N[C@@H](CCCc1ccccc1)B(O)O)N1C(=O)CCC1=O" .
500 to 5000 nM

Write IC50 of "CC[C@H](NC(=O)[C@@H](CC(=O)N1CCOCC1)NC(=O)c1cnccn1)B(O)O" ; system used: Lon protease homolog, mitochondrial (Homo sapiens)
50 to 500 nM

----------
Record set: IC50 | Lon protease homolog, mitochondrial (Homo sapiens, UniProt P36776) | literature, multiple sources.

Output reported IC50 of the molecule "CCC[C@H](NC(=O)[C@@H](CC(=O)N1CCOCC1)NC(=O)c1cnccn1)B(O)O" on Lon protease homolog, mitochondrial (Homo sapiens, UniProt P36776).
< 50 nM

Please look at "CC(C)(C)OC(=O)N(Cc1ccccc1)[C@H](CC(=O)N1CCOCC1)C(=O)N[C@@H](CCCc1ccccc1)B(O)O" and tell me its recorded IC50 on Lon protease homolog, mitochondrial (Homo sapiens, UniProt P36776).
500 to 5000 nM

Please report the measured IC50 for "O=C(N[C@H](COc1ccccn1)C(=O)N[C@@H](CCCc1ccccc1)B(O)O)c1cnccn1" tested on Lon protease homolog, mitochondrial (Homo sapiens, UniProt P36776).
< 50 nM

Look up and report IC50, with Lon protease homolog, mitochondrial (Homo sapiens, UniProt P36776) as system, for "O=C(N[C@H](CC(=O)N1CCOCC1)C(=O)N[C@@H](CCCc1ccccc1)B(O)O)[C@@H]1CCCCO1"
50 to 500 nM

Report IC50 from Lon protease homolog, mitochondrial (Homo sapiens, UniProt P36776) testing of "COC[C@@H](NC(=O)c1cnccn1)C(=O)N[C@H](CCOc1ccc(Cl)cc1F)B(O)O"
500 to 5000 nM

Report IC50 from Lon protease homolog, mitochondrial (Homo sapiens, UniProt P36776) testing of "O=C(N[C@H](CC(=O)N1CCOCC1)C(=O)N[C@@H](Cc1ccccc1)B(O)O)c1cnccn1"
500 to 5000 nM

State measured IC50 of the molecule "O=C(N[C@H](CC(=O)N1CCOCC1)C(=O)N[C@@H](CCCc1ccccc1)B(O)O)c1cc(Cl)ccc1Cl" with Lon protease homolog, mitochondrial (Homo sapiens, UniProt P36776).
< 50 nM

System Lon protease homolog, mitochondrial (Homo sapiens, UniProt P36776). Read-out IC50. Item "O=C(C[C@@H](NC(=O)c1cnccn1)C(=O)N[C@@H](CCCc1ccccc1)B(O)O)c1ccccc1" . Report value.
< 50 nM

Give Lon protease homolog, mitochondrial (Homo sapiens, UniProt P36776) IC50 for the following molecule: "CNC(=O)N[C@H](CC(=O)N1CCOCC1)C(=O)N[C@@H](CCCc1ccccc1)B(O)O"
50 to 500 nM

Recall the reported IC50 of "CC(C)C[C@H](NC(=O)[C@@H](Cc1nccn1C)NC(=O)c1cnccn1)B(O)O" on Lon protease homolog, mitochondrial (Homo sapiens, UniProt P36776) and write it down.
50 to 500 nM

Print Lon protease homolog, mitochondrial (Homo sapiens, UniProt P36776) IC50 for "CC(C)(C)OC(=O)N[C@H](CC(=O)N1CCOCC1)C(=O)N[C@@H](CCCc1ccccc1)B(O)O" .
< 50 nM

Using Lon protease homolog, mitochondrial (Homo sapiens, UniProt P36776) as the test system, report measured IC50 of "O=C(N[C@H](CCC(=O)N1CCOCC1)C(=O)N[C@@H](CCCc1ccccc1)B(O)O)c1cnccn1" .
< 50 nM

Give IC50 only, for "CS(=O)(=O)CC[C@@H](NC(=O)c1cnccn1)C(=O)N[C@@H](CCCc1ccccc1)B(O)O" , using Lon protease homolog, mitochondrial (Homo sapiens, UniProt P36776) data.
< 50 nM

System Lon protease homolog, mitochondrial (Homo sapiens, UniProt P36776). Read-out IC50. Item "CC(C)C[C@H](NC(=O)[C@@H](CC(=O)N1CCOCC1)NC(=O)c1cnccn1)B(O)O" . Report value.
< 50 nM

Determine reported IC50 for "COC[C@@H](NC(=O)c1cnccn1)C(=O)N[C@@H](CCC(=O)c1ccccc1)B(O)O" ; test system: Lon protease homolog, mitochondrial (Homo sapiens, UniProt P36776).
500 to 5000 nM
